target: IgE antibodies of the allergic patient serum pool We 6/97; test: EAST inhibition, serum pool We 6/97
Listed below: IC50 values for each entry.

binder	unit.tag	IC50
natural Phl p 5b, purified by affinity chromatography (protein) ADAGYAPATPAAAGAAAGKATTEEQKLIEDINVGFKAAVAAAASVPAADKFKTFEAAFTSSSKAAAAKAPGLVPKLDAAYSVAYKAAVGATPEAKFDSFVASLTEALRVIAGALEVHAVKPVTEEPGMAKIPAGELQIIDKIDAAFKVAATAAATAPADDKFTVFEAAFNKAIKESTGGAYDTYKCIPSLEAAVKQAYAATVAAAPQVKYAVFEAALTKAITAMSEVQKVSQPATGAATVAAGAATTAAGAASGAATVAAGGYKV	nM	6.1
rPhl p 5b point mutant PM3 (A13C) (protein) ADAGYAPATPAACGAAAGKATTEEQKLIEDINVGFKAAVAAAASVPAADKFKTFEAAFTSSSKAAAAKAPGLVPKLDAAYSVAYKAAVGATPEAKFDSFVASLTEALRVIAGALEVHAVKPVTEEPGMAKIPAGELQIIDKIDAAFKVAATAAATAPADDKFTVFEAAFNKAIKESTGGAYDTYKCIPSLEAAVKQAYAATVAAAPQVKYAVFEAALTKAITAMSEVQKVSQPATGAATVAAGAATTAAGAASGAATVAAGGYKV	nM	30
